SYSTEM NAME: Serotoninergic 5-HT2A (Homo sapiens, UniProt P28223)
Sequence (P28223 whole entry): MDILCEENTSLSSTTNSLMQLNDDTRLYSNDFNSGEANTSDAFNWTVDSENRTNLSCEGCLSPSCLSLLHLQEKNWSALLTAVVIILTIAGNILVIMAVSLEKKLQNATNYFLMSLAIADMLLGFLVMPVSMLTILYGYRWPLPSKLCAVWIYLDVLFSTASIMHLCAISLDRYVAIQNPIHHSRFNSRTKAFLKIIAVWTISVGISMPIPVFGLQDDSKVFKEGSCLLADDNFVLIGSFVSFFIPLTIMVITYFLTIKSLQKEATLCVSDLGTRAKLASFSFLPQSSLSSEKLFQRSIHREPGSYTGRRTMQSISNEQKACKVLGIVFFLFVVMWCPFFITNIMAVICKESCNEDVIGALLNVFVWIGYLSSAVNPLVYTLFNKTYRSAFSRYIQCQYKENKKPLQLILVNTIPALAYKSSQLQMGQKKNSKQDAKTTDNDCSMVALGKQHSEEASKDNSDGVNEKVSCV
MEASUREMENT NOTES: competitive radioligand binding, Serotoninergic 5-HT2A
CONDITION: read-out: radio-labelled ligand displacement, Serotoninergic 5-HT2A
Description: Profiles of pharmacological activity of thieno-pyrrolo[3,2-c]pyridines of the general formula 1. […] The tested activity was determined by quantitative measurement of radio-labelled ligand displacement by tested compounds of the general formula 1 at their concentration of 1 μM.
Where a name gives a salt, the structure may show the parent alone.
Exercise: state measured inhibition at 1 µM for each of the compounds provided.

Query: Please report the recorded inhibition at 1 µM for Cc1ccc(CCCn2c3c(c4scc(Cl)c42)CN(C)CC3)cn1 [2.12(5)•HCl] .
Result: 99%

Query: Please report the recorded inhibition at 1 µM for Cc1cc2c3c(n(Cc4ccccc4)c2s1)CC1CCC3N1C (stereo not shown) [3.13(1)•HCl] .
Result: 95%

Query: Please report the recorded inhibition at 1 µM for Cc1cc2c3c(n(CCc4ccccc4)c2s1)CCN(C)C3.Cl [3.6(1)•HCl] .
Result: 101%

Query: Please report the recorded inhibition at 1 µM for CC1Cc2c(c3sc(Cl)cc3n2C#Cc2cccc(F)c2)C(C)N1C (stereo not shown) [2.10(3)•HCl] .
Result: 43%

* * *

SYSTEM NAME: UniProt P35367
MEASUREMENT NOTES: competitive radioligand binding, Histaminergic H1
CONDITION: compound concentration of 1 μM
Structures can show the parent of a compound that is named as a salt.
MEASURE: radio-labelled ligand displacement, Histaminergic H1 (%)
Lab book: enter the figure in %, no units written.

Query: Please report the recorded radio-labelled ligand displacement, Histaminergic H1 for CN1CCc2c(c3cc(Cl)sc3n2CCCc2cccc(F)c2)C1 [3.12(6)•HCl] .
Result: 97

Query: Please report the recorded radio-labelled ligand displacement, Histaminergic H1 for Cc1cc2c3c(n(CCc4ccc(Cl)cc4)c2s1)C(C)CN(C)C3 (stereo not drawn) [3.6(4)•HCl] .
Result: 95

Query: Please report the recorded radio-labelled ligand displacement, Histaminergic H1 for Cc1ccc(CCCn2c3c(c4c(Cl)csc42)CN(C)CC3)cc1 [3.12(5)•HCl] .
Result: 89

Query: Please report the recorded radio-labelled ligand displacement, Histaminergic H1 for Cc1csc2c1c1c(n2CCCc2ccccc2)CCN(C)C1 [3.12(1)•HCl] .
Result: 98

Query: Please report the recorded radio-labelled ligand displacement, Histaminergic H1 for Cc1cc2c3c(n(CC(O)c4ccccc4)c2s1)CCN(C)C3.Cl (stereo not drawn) [3.7(1)•HCl] .
Result: 89

Query: Please report the recorded radio-labelled ligand displacement, Histaminergic H1 for Cc1ccc(C=CCn2c3c(c4cc(C)sc42)CN(C)CC3)cc1 [3.11(2)•HCl] .
Result: 81

* * *

SYSTEM NAME: Histaminergic H1 (Homo sapiens)
Sequence (P35367 whole entry): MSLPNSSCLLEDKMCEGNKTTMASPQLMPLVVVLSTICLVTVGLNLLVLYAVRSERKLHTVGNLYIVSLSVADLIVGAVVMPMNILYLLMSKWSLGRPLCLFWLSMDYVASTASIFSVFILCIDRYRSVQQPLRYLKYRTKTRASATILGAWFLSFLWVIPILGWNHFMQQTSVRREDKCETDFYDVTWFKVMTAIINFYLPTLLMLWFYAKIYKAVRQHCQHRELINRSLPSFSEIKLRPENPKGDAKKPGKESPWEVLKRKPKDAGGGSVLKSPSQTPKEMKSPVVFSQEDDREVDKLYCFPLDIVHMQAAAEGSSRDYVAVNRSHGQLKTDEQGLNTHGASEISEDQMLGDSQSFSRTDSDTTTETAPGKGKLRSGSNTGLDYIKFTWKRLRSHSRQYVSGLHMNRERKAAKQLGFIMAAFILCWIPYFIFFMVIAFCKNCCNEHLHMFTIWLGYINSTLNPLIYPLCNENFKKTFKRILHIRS
MEASUREMENT NOTES: competitive radioligand binding, Histaminergic H1
CONDITION: compound concentration of 1 μM; read-out: radio-labelled ligand displacement, Histaminergic H1
Structures can show the parent of a compound that is named as a salt.
MEASURE: inhibition at 1 µM (%)
Lab book: enter the figure in %, no units written.

Query: Lab note: need inhibition at 1 µM with Histaminergic H1 (Homo sapiens) for entry Cc1ccc(CCCn2c3c(c4scc(Cl)c42)CN(C)CC3)cn1 [2.12(5)•HCl] , please look it up.
Result: 99

Query: Lab note: need inhibition at 1 µM with Histaminergic H1 (Homo sapiens) for entry Cc1cc2c3c(n(Cc4ccccc4)c2s1)CCN(C)C3.Cl [3.5(1)•HCl] , please look it up.
Result: 96

Query: Lab note: need inhibition at 1 µM with Histaminergic H1 (Homo sapiens) for entry Cc1cc2c(s1)c1c(n2-c2cccc(F)c2)CCN(C)C1 [2.4(3)•HCl] , please look it up.
Result: 38

Query: Lab note: need inhibition at 1 µM with Histaminergic H1 (Homo sapiens) for entry Cc1ccc(Cn2c3c(c4sc(Cl)cc42)C(C)N(C)C(C)C3)cn1 (stereo not shown) [2.5(4)•HCl] , please look it up.
Result: 70
